# Tested on: rodent lifetime carcinogenesis bioassay, tumor incidence TD50
# EXPERIMENT SUMMARY: carcinogenic potency in animals, long-term in vivo studies, CPDB compilation (AID 1745844)
# EXPERIMENTAL SETUP: mouse; strain B6C3F1; females; inhaled; site: liver; lesion: hepatocellular carcinoma; dosed 78 weeks; study length 104 weeks
QUANTITY NAME: TD50 (mg/kg/day)
Please respond with the number in mg/kg/day and leave the unit unwritten.

Short answer for `ClCCl` : TD50 was 4020

###

# System: rodent lifetime carcinogenesis bioassay, tumor incidence TD50
# EXPERIMENT SUMMARY: carcinogenic potency in animals, long-term in vivo studies, CPDB compilation (AID 1745844)
# EXPERIMENTAL SETUP: mouse; strain B6C3F1; males; in feed; site: stomach, nonglandular; lesion: several types; types named in the paper; dosed 104 weeks; study length 104 weeks
QUANTITY NAME: TD50 (mg/kg/day)
Express your answer in mg/kg/day, writing the number without its unit.

// TD50 value for `O=C1c2ccccc2C(=O)N1SC(Cl)(Cl)Cl` : 5460

###

# Tested on: rodent lifetime carcinogenesis bioassay, tumor incidence TD50
# EXPERIMENT SUMMARY: carcinogenic potency in animals, long-term in vivo studies, CPDB compilation (AID 1745844)
# EXPERIMENTAL SETUP: mouse; strain B6C3F1; females; in feed; site: lung; lesion: alveolar/bronchiolar adenoma + alveolar/bronchiolar carcinoma; dosed 109 weeks; study length 103 weeks
QUANTITY NAME: TD50 (mg/kg/day)
Express the result in mg/kg/day but write the number alone.

Response field TD50 (rodent lifetime carcinogenesis bioassay, tumor incidence TD50) for item `S=C(NC1CCCCC1)NC1CCCCC1` : 1.11e+08

###

# Test system: rodent lifetime carcinogenesis bioassay, tumor incidence TD50
# EXPERIMENT SUMMARY: carcinogenic potency in animals, long-term in vivo studies, CPDB compilation (AID 1745844)
# EXPERIMENTAL SETUP: rat; strain Fischer 344; females; inhaled; site: all sites; lesion: hemangiosarcoma; dosed 103 weeks; study length 104 weeks
QUANTITY NAME: TD50

get_value(item= `FC(F)=C(F)F` , readout=TD50) returns 886 mg/kg/day

###

# Test system: rodent lifetime carcinogenesis bioassay, tumor incidence TD50
# EXPERIMENT SUMMARY: carcinogenic potency in animals, long-term in vivo studies, CPDB compilation (AID 1745844)
# EXPERIMENTAL SETUP: mouse; strain B6C3F1; females; in feed; site: all sites; lesion: systemic and localized lymphoma; dosed 100 weeks; study length 100 weeks
QUANTITY NAME: TD50

Short answer on rodent lifetime carcinogenesis bioassay, tumor incidence TD50 for `Cn1cnc([N+](=O)[O-])c1Sc1ncnc2nc[nH]c12` , TD50: 43.8 mg/kg/day

###

# System: rodent lifetime carcinogenesis bioassay, tumor incidence TD50
# EXPERIMENT SUMMARY: carcinogenic potency in animals, long-term in vivo studies, CPDB compilation (AID 1745844)
# EXPERIMENTAL SETUP: rat; strain Fischer 344; males; by gavage; site: splenic red pulp; lesion: osteosarcoma + sarcoma, NOS; dosed 103 weeks; study length 104 weeks
QUANTITY NAME: TD50

Value sought: TD50, system rodent lifetime carcinogenesis bioassay, tumor incidence TD50, item `CN(C)c1ccccc1` . Result: 125 mg/kg/day
